Catalogue of EC50 values
- Tested on: Reovirus-1
- Assay Comment: Antiviral CPE reduction assay, Reovirus-1 in VERO cells
- Assay type: cell-based
- Cond: Vero, read-out: Antiviral EC50 Reovirus-1

{"Molecule": "NC(=O)c1ncn([C@@H]2O[C@H](CO)[C@@H](O)[C@H]2O)n1 [Ribavirin, reference compound]", "EC50": "> 250 µM"}
{"Molecule": "O=C(Cc1csc2nc(-c3ccc(Br)cc3)cn12)NN1C(=O)CSC12CCC(c1ccc(O)cc1)CC2 (stereo not shown) [Compound 5d]", "EC50": "> 100 µg/mL"}
{"Molecule": "CC1SC2(CCCC2)N(NC(=O)Cc2csc3nc(-c4ccc(Br)cc4)cn23)C1=O (stereo not shown) [Compound 6a]", "EC50": "> 100 µg/mL"}
{"Molecule": "O=C(Cc1csc2nc(-c3ccc(Br)cc3)cn12)NN1C(=O)CSC12CCCCC2 [Compound 5b]", "EC50": "> 100 µg/mL"}

* * *

- Tested on: HSV-1
- Assay Comment: Antiviral CPE reduction assay, HSV-1 in HEL cells
- Type: cell-based, Herpes simplex virus-1
- Cond: HEL cells; CPE by microscopy; mean of two experiments
Catalogue of Antiviral EC50 HSV-1 values
Observed Property: Antiviral EC50 HSV-1 (µg/mL)

{"Compound": "O=C(Cc1csc2nc(-c3ccc(Br)cc3)cn12)NN=C1CCCCC1", "Observed Property": "Antiviral EC50 HSV-1", "Lt Gt Eq": ">", "Reported Result": 100}
{"Compound": "CC1SC2(CCCCC2)N(NC(=O)Cc2csc3nc(-c4ccc(Br)cc4)cn23)C1=O (stereo not shown)", "Observed Property": "Antiviral EC50 HSV-1", "Lt Gt Eq": ">", "Reported Result": 100}
{"Compound": "O=C(Cc1csc2nc(-c3ccc(Br)cc3)cn12)NN=C1CCC(c2ccccc2)CC1 (stereo not shown)", "Observed Property": "Antiviral EC50 HSV-1", "Lt Gt Eq": "=", "Reported Result": 45}
{"Compound": "O=C(Cc1csc2nc(-c3ccc(Br)cc3)cn12)NN=C1CCC(c2ccc(O)cc2)CC1 (stereo not shown)", "Observed Property": "Antiviral EC50 HSV-1", "Lt Gt Eq": "=", "Reported Result": 45}

* * *

- System: Mycobacterium tuberculosis H37Rv
- Cond: M. tuberculosis H37Rv; MABA in BACTEC 12B medium

{"Compound": "O=C(Cc1csc2nc(-c3ccc(Br)cc3)cn12)NN1C(=O)CSC12CCC(c1ccccc1)CC2 (stereo not drawn)", "H37Rv Finding Activity": "Active"}
{"Compound": "O=C(Cc1csc2nc(-c3ccc(Br)cc3)cn12)NN1C(=O)CSC12CCCC2", "H37Rv Finding Activity": "Active"}

* * *

- System: Mycobacterium tuberculosis H37Rv

{"Smiles Data": "O=C(Cc1csc2nc(-c3ccc(Br)cc3)cn12)NN=C1CCCCC1", "Target Desc": "Mycobacterium tuberculosis H37Rv", "IC50": "> 100 µg/mL"}

* * *

- Tested on: human embryonic lung (HEL) fibroblast cells
- Cond: minimum cytotoxic concentration, microscopic inspection of cell morphology
Catalogue of Cytotoxicity MCC values
Observed Property: Cytotoxicity MCC (µg/mL)

{"Molecule": "CC1SC2(CCC(c3ccccc3)CC2)N(NC(=O)Cc2csc3nc(-c4ccc(Br)cc4)cn23)C1=O (stereo not drawn)", "Reported Result": 20}
{"Molecule": "O=C(Cc1csc2nc(-c3ccc(Br)cc3)cn12)NN1C(=O)CSC12CCC(c1ccc(O)cc1)CC2 (stereo not drawn)", "Reported Result": 20}
{"Molecule": "O=C(Cc1csc2nc(-c3ccc(Br)cc3)cn12)NN=C1CCCCC1", "Reported Result": 20}

* * *

- System: Mycobacterium tuberculosis H37Rv
Catalogue of H37Rv Finding MIC values
Observed Property: H37Rv Finding MIC (µg/mL)

{"Compound": "O=C(Cc1csc2nc(-c3ccc(Br)cc3)cn12)NN1C(=O)CSC12CCCC2 [Compound 5a]", "Uom": "µg/mL", "Lt Gt Eq": "=", "Reported Result": 8.453}
{"Compound": "O=C(Cc1csc2nc(-c3ccc(Br)cc3)cn12)NN=C1CCCCC1 [Compound 4b]", "Uom": "µg/mL", "Lt Gt Eq": ">", "Reported Result": 100}
{"Compound": "O=C(Cc1csc2nc(-c3ccc(Br)cc3)cn12)NN1C(=O)CSC12CCCCC2 [Compound 5b]", "Uom": "µg/mL", "Lt Gt Eq": "=", "Reported Result": 1.566}
{"Compound": "O=C(Cc1csc2nc(-c3ccc(Br)cc3)cn12)NN=C1CCC(c2ccccc2)CC1 (stereo not shown) [Compound 4c]", "Uom": "µg/mL", "Lt Gt Eq": ">", "Reported Result": 100}

* * *

- Tested on: VERO cells
- Cond: minimum cytotoxic concentration, microscopic inspection of cell morphology
Observed Property: Cytotoxicity MCC (µg/mL)

{"Compound": "CC1SC2(CCCC2)N(NC(=O)Cc2csc3nc(-c4ccc(Br)cc4)cn23)C1=O (centres unmarked)", "Target Desc": "VERO cells", "Observed Property": "Cytotoxicity MCC", "Lt Gt Eq": "=", "Reported Result": 100}
{"Compound": "O=C(Cc1csc2nc(-c3ccc(Br)cc3)cn12)NN1C(=O)CSC12CCC(c1ccccc1)CC2 (centres unmarked)", "Target Desc": "VERO cells", "Observed Property": "Cytotoxicity MCC", "Lt Gt Eq": "=", "Reported Result": 20}
{"Compound": "O=C(Cc1csc2nc(-c3ccc(Br)cc3)cn12)NN1C(=O)CSC12CCCC2", "Target Desc": "VERO cells", "Observed Property": "Cytotoxicity MCC", "Lt Gt Eq": "≥", "Reported Result": 20}
{"Compound": "O=C(Cc1csc2nc(-c3ccc(Br)cc3)cn12)NN=C1CCC(c2ccc(O)cc2)CC1 (centres unmarked)", "Target Desc": "VERO cells", "Observed Property": "Cytotoxicity MCC", "Lt Gt Eq": ">", "Reported Result": 100}
{"Compound": "CC1SC2(CCC(c3ccccc3)CC2)N(NC(=O)Cc2csc3nc(-c4ccc(Br)cc4)cn23)C1=O (centres unmarked)", "Target Desc": "VERO cells", "Observed Property": "Cytotoxicity MCC", "Lt Gt Eq": "=", "Reported Result": 20}
{"Compound": "CC1SC2(CCCCC2)N(NC(=O)Cc2csc3nc(-c4ccc(Br)cc4)cn23)C1=O (centres unmarked)", "Target Desc": "VERO cells", "Observed Property": "Cytotoxicity MCC", "Lt Gt Eq": "=", "Reported Result": 100}
{"Compound": "O=C(Cc1csc2nc(-c3ccc(Br)cc3)cn12)NN=C1CCCCC1", "Target Desc": "VERO cells", "Observed Property": "Cytotoxicity MCC", "Lt Gt Eq": ">", "Reported Result": 100}
{"Compound": "CC1SC2(CCC(c3ccc(O)cc3)CC2)N(NC(=O)Cc2csc3nc(-c4ccc(Br)cc4)cn23)C1=O (centres unmarked)", "Target Desc": "VERO cells", "Observed Property": "Cytotoxicity MCC", "Lt Gt Eq": "≥", "Reported Result": 20}

* * *

- Test system: CRFK feline kidney cells
- Cond: MTS cell viability assay

{"Compound": "O=C(Cc1csc2nc(-c3ccc(Br)cc3)cn12)NN=C1CCCCC1", "Lt Gt Eq": ">", "Cytotoxicity CC50 / µg/mL": 100}
{"Compound": "CC1SC2(CCCCC2)N(NC(=O)Cc2csc3nc(-c4ccc(Br)cc4)cn23)C1=O (stereo not shown)", "Lt Gt Eq": "=", "Cytotoxicity CC50 / µg/mL": 9.2}
{"Compound": "O=C(Cc1csc2nc(-c3ccc(Br)cc3)cn12)NN=C1CCC(c2ccccc2)CC1 (stereo not shown)", "Lt Gt Eq": ">", "Cytotoxicity CC50 / µg/mL": 100}
{"Compound": "O=C(Cc1csc2nc(-c3ccc(Br)cc3)cn12)NN=C1CCC(c2ccc(O)cc2)CC1 (stereo not shown)", "Lt Gt Eq": "=", "Cytotoxicity CC50 / µg/mL": 68}

* * *

- System: VERO cells
- Cond: minimum cytotoxic concentration, microscopic inspection of cell morphology
Catalogue of Cytotoxicity MCC values

{"Compound": "O=C(Cc1csc2nc(-c3ccc(Br)cc3)cn12)NN=C1CCC(c2ccccc2)CC1 (stereo not drawn)", "Cytotoxicity MCC": ">100 µg/mL"}
{"Compound": "O=C(Cc1csc2nc(-c3ccc(Br)cc3)cn12)NN1C(=O)CSC12CCCCC2", "Cytotoxicity MCC": ">100 µg/mL"}
{"Compound": "O=C(Cc1csc2nc(-c3ccc(Br)cc3)cn12)NN1C(=O)CSC12CCC(c1ccc(O)cc1)CC2 (stereo not drawn)", "Cytotoxicity MCC": ">100 µg/mL"}

* * *

- Test system: Mycobacterium tuberculosis H37Rv
- Cond: M. tuberculosis H37Rv; MABA in BACTEC 12B medium

{"Compound": "O=C(Cc1csc2nc(-c3ccc(Br)cc3)cn12)NN1C(=O)CSC12CCCCC2 [Compound 5b]", "H37Rv Finding Activity": "Active"}
{"Compound": "CO[C@H]1/C=C/O[C@@]2(C)Oc3c(C)c(O)c4c(O)c(c(/C=N/N5CCN(C)CC5)c(O)c4c3C2=O)NC(=O)/C(C)=C\\C=C\\[C@H](C)[C@H](O)[C@@H](C)[C@@H](O)[C@@H](C)[C@H](OC(C)=O)[C@@H]1C [Rifampin, reference compound]", "H37Rv Finding Activity": "Active"}
